All values here come from paper PMC5039535.

System: HepG-2 tumor cell line
METHOD NOTES: SRB cytotoxicity assay, HepG-2
Assay type: cell-based, human
ASSAY CONDITIONS: Homo sapiens, HepG2; SRB method; mean ± s, n=3
Reported IC50 values are given for each entry in this list.
MEASURED METRIC: IC50 (µM)

>  <COMPOUND>
CS[C@@]1(CO)NC(=O)[C@@](Cc2ccccc2)(SC)NC1=O

>  <UNIT TEXT>
µM

>  <INEQUALITY SYMBOL>
>

>  <MEASURED VALUE>
100

$$$$
>  <COMPOUND>
CSC1(CO)C(=O)n2c(cc3ccccc32)C(=O)N1C (stereo not shown)

>  <UNIT TEXT>
µM

>  <INEQUALITY SYMBOL>
=

>  <MEASURED VALUE>
28.9

$$$$
>  <COMPOUND>
CC(=O)O[C@H]1C=CC=C2C[C@]34SS[C@](CO)(C(=O)N3C21)N(C)C4=O (stereo partly shown)

>  <UNIT TEXT>
µM

>  <INEQUALITY SYMBOL>
=

>  <MEASURED VALUE>
0.49

$$$$
>  <COMPOUND>
C=c1c(=O)n2c(cc3ccccc32)c(=O)n1C

>  <UNIT TEXT>
µM

>  <INEQUALITY SYMBOL>
=

>  <MEASURED VALUE>
2.29

$$$$
>  <COMPOUND>
CN1C(=O)[C@]2(O)Cc3ccccc3N2C(=O)[C@H]1CO

>  <UNIT TEXT>
µM

>  <INEQUALITY SYMBOL>
>

>  <MEASURED VALUE>
100

$$$$
>  <COMPOUND>
CN1C(=O)[C@]23Cc4ccccc4N2C(=O)[C@@]1(CO)SS3 [Compound 4, 6-deoxy-5a,6-didehydrogliotoxin]

>  <UNIT TEXT>
µM

>  <INEQUALITY SYMBOL>
=

>  <MEASURED VALUE>
1.52

$$$$
>  <COMPOUND>
CS[C@]1(CO)C(=O)N2[C@H]3C(=CC=C[C@@H]3OC(C)=O)C[C@@]2(SC)C(=O)N1C

>  <UNIT TEXT>
µM

>  <INEQUALITY SYMBOL>
=

>  <MEASURED VALUE>
7

$$$$

---

STUDY SYSTEM: α-glucosidase
METHOD NOTES: α-glucosidase inhibitory activity assay
ASSAY CONDITIONS: in vitro; mean ± s, n=3
Protocol: All compounds were evaluated in vitro for α-glucosidase inhibitory activities. An assay of α-glucosidase inhibitory activity was performed as previously described.
pIC50: −log10 of the molar value.

>  <MOLECULE>
CN1C(=O)[C@]23CC4=CC=C[C@H](O)[C@H]4N2C(=O)[C@@]1(CO)SS3 [Compound 5, gliotoxin]

>  <pIC50>
< 3.30

$$$$
>  <MOLECULE>
CSC1(CO)C(=O)n2c(cc3ccccc32)C(=O)N1C (stereo not shown) [Compound 1, dichotocejpin A]

>  <pIC50>
3.86

$$$$
>  <MOLECULE>
CN1C(=O)[C@]23Cc4ccccc4N2C(=O)[C@@]1(CO)SS3 [Compound 4, 6-deoxy-5a,6-didehydrogliotoxin]

>  <pIC50>
< 3.30

$$$$
>  <MOLECULE>
CS[C@]1(CO)C(=O)N2[C@H]3C(=CC=C[C@@H]3OC(C)=O)C[C@@]2(SC)C(=O)N1C [Compound 10, 6-acetylbis(methylthio)gliotoxin]

>  <pIC50>
< 3.30

$$$$
